# System: S. pneumoniae D39V;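 further: OD595 on entry to stationary phase over no-drug wells; at most 1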
# EXPERIMENTAL_DETAILS: fitness (endpoint OD595 vs no drug) (fraction); higher = more growth
# TEST_CONTEXT: first compound 0.006 µg/mL; partner 1 µg/mL; one replicate
READOUT_KIND: fitness
Reply with the value as a number alone.

# example entries with known answers
COMPOUND: CC1(C)S[C@@H]2[C@H](NC(=O)[C@H](N)c3ccc(O)cc3)C(=O)N2[C@H]1C(=O)O [Amoxicillin] + Cc1cc(NS(=O)(=O)c2ccc(N)cc2)no1 [Sulfamethoxazol]
ASSAY_SYSTEM: S. pneumoniae D39V;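 further: OD595 on entry to stationary phase over no-drug wells; at most 1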
fitness: 0.368

COMPOUND: CC1(C)S[C@@H]2[C@H](NC(=O)[C@H](N)c3ccc(O)cc3)C(=O)N2[C@H]1C(=O)O [Amoxicillin] + CC1=C(C(=O)O)N2C(=O)[C@@H](NC(=O)[C@H](N)c3ccccc3)[C@H]2SC1 [Cephalexin]
ASSAY_SYSTEM: S. pneumoniae D39V;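 further: OD595 on entry to stationary phase over no-drug wells; at most 1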
fitness: 0.0722

COMPOUND: CC1(C)S[C@@H]2[C@H](NC(=O)[C@H](N)c3ccc(O)cc3)C(=O)N2[C@H]1C(=O)O [Amoxicillin] + O=C(O)[C@H]1/C(=C/CO)O[C@@H]2CC(=O)N21 [Clavulanic acid]
ASSAY_SYSTEM: S. pneumoniae D39V;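 further: OD595 on entry to stationary phase over no-drug wells; at most 1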
fitness: 0.315

Please find the next compound below.
The reported value for CC1(C)S[C@@H]2[C@H](NC(=O)[C@H](N)c3ccc(O)cc3)C(=O)N2[C@H]1C(=O)O [Amoxicillin] + COc1ccc(C[C@H](N)C(=O)N[C@H]2[C@@H](O)[C@H](n3cnc4c(N(C)C)ncnc43)O[C@@H]2CO)cc1 [Puromycin] in terms of fitness is 0.617

Recorded values, source the supplement of paper PMC10627819.
